Target: Diamine oxidase [copper-containing] (Homo sapiens, UniProt P19801)
Sequence (P19801 whole entry): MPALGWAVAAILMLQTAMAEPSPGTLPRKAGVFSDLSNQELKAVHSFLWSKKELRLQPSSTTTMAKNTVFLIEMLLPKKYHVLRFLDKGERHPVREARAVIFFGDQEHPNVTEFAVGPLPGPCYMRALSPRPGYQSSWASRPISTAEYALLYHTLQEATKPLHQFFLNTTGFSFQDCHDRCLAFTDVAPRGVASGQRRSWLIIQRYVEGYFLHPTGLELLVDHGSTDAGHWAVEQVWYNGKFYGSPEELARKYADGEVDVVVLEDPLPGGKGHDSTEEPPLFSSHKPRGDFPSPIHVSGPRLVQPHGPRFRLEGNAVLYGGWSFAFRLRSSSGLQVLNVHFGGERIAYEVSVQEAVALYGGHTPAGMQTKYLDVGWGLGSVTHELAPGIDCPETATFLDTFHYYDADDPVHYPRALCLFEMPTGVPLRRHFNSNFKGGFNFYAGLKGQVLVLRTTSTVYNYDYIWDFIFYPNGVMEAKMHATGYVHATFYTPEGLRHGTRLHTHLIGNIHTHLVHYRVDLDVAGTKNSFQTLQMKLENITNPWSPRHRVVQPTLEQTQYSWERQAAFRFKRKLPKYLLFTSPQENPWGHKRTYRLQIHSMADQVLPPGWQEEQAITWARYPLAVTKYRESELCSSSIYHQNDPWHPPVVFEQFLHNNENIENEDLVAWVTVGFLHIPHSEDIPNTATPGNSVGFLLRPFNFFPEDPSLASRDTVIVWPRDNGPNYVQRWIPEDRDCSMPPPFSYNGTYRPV
Assay: DAO Inhibition Assay: Recombinant human DAO (2.4 μg/mL) was used as source of DAO enzyme activities.
VALUE TYPE: IC50

Lookup: What value of IC50 has been reported for the following compound? `NC/C(=C/F)CCc1ccc(F)cc1`
Found: > 10 µM

----------
Biological target: Amine oxidase [flavin-containing] B (Homo sapiens)
Sequence (P27338 whole entry): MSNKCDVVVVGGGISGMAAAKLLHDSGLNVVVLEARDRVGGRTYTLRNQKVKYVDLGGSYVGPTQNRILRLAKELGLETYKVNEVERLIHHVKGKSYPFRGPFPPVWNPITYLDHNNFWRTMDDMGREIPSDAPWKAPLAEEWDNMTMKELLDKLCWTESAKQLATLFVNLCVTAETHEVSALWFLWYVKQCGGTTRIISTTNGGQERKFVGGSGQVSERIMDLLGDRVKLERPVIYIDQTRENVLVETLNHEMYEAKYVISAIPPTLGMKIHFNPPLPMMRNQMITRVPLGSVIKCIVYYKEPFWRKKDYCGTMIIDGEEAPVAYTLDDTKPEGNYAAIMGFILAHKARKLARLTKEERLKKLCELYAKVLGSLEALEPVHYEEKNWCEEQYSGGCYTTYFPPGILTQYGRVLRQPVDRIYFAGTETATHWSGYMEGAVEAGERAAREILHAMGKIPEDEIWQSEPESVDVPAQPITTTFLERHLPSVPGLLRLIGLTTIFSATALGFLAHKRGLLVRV
VALUE TYPE: pIC50
# log scale: pIC50 equals minus log10 of the concentration in mol/L

Lookup: What value of pIC50 has been reported for the following molecule? `NC/C(=C/F)CCc1ccc(F)cc1`
Found: 8.30
